# Test system: LOX IMVI
# test name: NCI tumour cell line growth inhibition, 48 h
Active and inactive are the calls of the source. Cut-off read from the data, not from the text of the source: active = GI50 up to about 1.1 µM and inactive = higher.
Labels: active, inactive

INSERT INTO assay_data (compound, discrete_label) VALUES
  ('COC(=O)[C@H]1CO[C@@H](C(C)(C)C)N1C(=O)N1C=CC(=O)C[C@@H]1C', 'inactive'),
  ('CC(C)C(=O)Nc1nc2[nH]cnc2c(=O)[nH]1', 'inactive'),
  ('O=c1c2cc(Br)ccc2ncn1COCc1ccccc1', 'inactive'),
  ('COc1cc(C23OCC(Cc4cc5c(cc42)OCO5)C3CO)cc(OC)c1OC (configuration not stated)', 'inactive'),
  ('Cc1cc(C)c2c(=O)n(CN3CCC(O)(c4ccccc4)CC3)sc2n1', 'inactive'),
  ('CC(=O)O[C@H]1C#C/C=C\C#CC[C@@H]2C(=O)N[C@@H]12', 'inactive'),
  ('[N-]=[N+]=NC1OC(=O)C(Cl)=C1N=P(c1ccccc1)(c1ccccc1)c1ccccc1 (configuration not stated)', 'inactive'),
  ('O=C(O)C1CCCCC1C(=O)Nc1nc2ccccc2[nH]1 (configuration not stated)', 'inactive'),
  ('COc1cc([C@@H]2OC(=O)C3C2C(=O)O[C@H]3c2cc(OC)c(OC)c(OC)c2)cc(OC)c1OC (some centres not stated)', 'inactive'),
  ('COc1cc2cccc(N)c2cc1OC', 'inactive'),
  ('COc1cc(C=O)cc(/C=N/n2c3ccccc3c3ccccc32)c1O', 'inactive'),
  ('CSc1nc2c(c(O)c(C)c(=O)n2C2OC(COC(C)=O)C(OC(C)=O)C(OC(C)=O)C2OC(C)=O)c(=O)n1C (configuration not stated)', 'inactive'),
  ('CCOP1(=O)C=C(C)C(Cl)=C(C)C1 (configuration not stated)', 'inactive'),
  ('NCCOc1ccc(/C(=C(/Cl)c2ccccc2)c2ccccc2)cc1', 'inactive'),
  ('O=C(CBr)N1CCC2(CC1)SSC1(CCN(C(=O)CBr)CC1)S2', 'active'),
  ('CCCCSN1C(=O)c2ccccc2C1=S', 'inactive'),
  ('COC(=O)c1cc2c(nc1C)-c1ccccc1OS2(=O)=O', 'inactive'),
  ('CCC(=O)N1C(=S)SC[C@H]1C(=O)OC', 'inactive'),
  ('O=C1c2ccc3c4ccccc4n(-c4ccccc4)c3c2C(=O)N1c1ccc(Cl)cc1', 'inactive'),
  ('Cn1cccc(C(=O)c2ccccc2)c1=O', 'inactive'),
  ('COc1ccc2cc1Oc1ccc(cc1)CC1c3cc(c(OC)cc3CCN1C)Oc1c3c(cc4c1C(C2)N(C)CC4)OCO3 (configuration not stated)', 'inactive'),
  ('N=C1OC(c2cccc(Cl)c2)C(NNS(=O)(=O)c2ccccc2)=C1O (configuration not stated)', 'inactive');

// provenance: ChEMBL document CHEMBL1201862
